B1: Hairpin Ribozyme (parent)
chain: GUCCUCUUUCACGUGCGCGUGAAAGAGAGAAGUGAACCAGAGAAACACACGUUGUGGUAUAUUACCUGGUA

# Variants of: B1
# assayName: self-cleavage, relative activity (ratio to wild type); higher = more cleavage; co-transcriptional
measuredMetric: self-cleavage

| change | measuredNumber |
| --- | --- |
| C16U C37U | 0.508 |
| G13U G57C | 0.173 |
| C10A A35C | 0.846 |
| U2C G68U | 0.161 |
| C38U U67G | 0.204 |
| G19U C46A | 0.17 |
| U62A C65A | 0.165 |
| U52C U55G | 0.301 |
